Molecular target: UniProt:Q92851
Sequence (Q92851 220-521): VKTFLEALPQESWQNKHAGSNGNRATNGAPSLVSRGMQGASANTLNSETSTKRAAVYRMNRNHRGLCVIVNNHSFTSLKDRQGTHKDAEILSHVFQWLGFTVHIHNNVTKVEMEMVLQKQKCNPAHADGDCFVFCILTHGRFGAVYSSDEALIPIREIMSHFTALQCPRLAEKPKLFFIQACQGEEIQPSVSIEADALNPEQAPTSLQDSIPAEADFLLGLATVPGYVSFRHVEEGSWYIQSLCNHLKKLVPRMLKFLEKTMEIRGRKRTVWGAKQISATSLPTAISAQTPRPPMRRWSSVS
Experiment: Blockade of probe 61 labeling of pro-CASP10
Conditions: 300 nM protein in MDA-MB-231 lysate; read-out: apparent IC50 for blockade of 61 labeling of pro-CASP10
pIC50: −log10 of the molar value.
measurement_label: pIC50

1) O=C(c1ccc(N2CCOCC2)cc1)N1CCC[C@@H](N(C(=O)CCl)c2ccccc2)C1 : < 4.00

====

Biological target: ACAT1 C196 (P24752) (Homo sapiens, UniProt P24752)
Sequence (P24752 34-427): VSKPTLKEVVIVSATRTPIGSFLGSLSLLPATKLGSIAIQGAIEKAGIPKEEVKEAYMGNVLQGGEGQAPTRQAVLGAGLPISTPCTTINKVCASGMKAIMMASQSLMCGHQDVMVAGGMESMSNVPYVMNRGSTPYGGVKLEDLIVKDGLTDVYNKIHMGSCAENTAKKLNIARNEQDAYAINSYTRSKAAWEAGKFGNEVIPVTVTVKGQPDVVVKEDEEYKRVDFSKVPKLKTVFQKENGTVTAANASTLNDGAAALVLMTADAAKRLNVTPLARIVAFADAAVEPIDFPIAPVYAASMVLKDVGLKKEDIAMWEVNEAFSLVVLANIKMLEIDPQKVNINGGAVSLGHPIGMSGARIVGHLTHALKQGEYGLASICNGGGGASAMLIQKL
Test: Competitive isoTOP-ABPP, cell lysates
Format: binding
Settings: 500 μm, in-vitro_ramos_231
The entries below come with measured isoTOP-ABPP reactivity ratio, P24752_C196 values attached.
measurement_label: isoTOP-ABPP reactivity ratio, P24752_C196

1. C=CC(=O)N(Cc1cccnc1)c1cc(C(F)(F)F)cc(C(F)(F)F)c1 [compound 31] : 1.2
2. O=C(CCl)Nc1cc(C(=O)O)cc(C(F)(F)F)c1 [compound 36] : 1.5
3. C=CC(=O)Nc1cc(F)c(N2CCN(C(=O)OC(C)(C)C)CC2)c(F)c1 [compound 38] : 1.0
4. COC(=O)C1Cc2ccccc2CN1C(=O)CCl (stereo not shown) [compound 39] : 3.0
